# Tested on: MIA PaCa-2
# experimental protocol: Antiproliferative activity against human MIAPaCa2 cells harboring KRAS G12C point mutant assessed as cell growth inhibition after 72 hrs by Celltiter-Glo luminescent cell viability assay
# Type: functional, cell-based
# condition context: MIA PaCa-2, 72 h
measurement label: pIC50
Numbers only, as −log10 of the molar value.

Would you please look over these solved cases?
compound: C=CC(=O)N1CCN(c2nc(=O)n(-c3ccccc3C(C)C)c3nc(-c4c(O)cccc4F)c(Cl)cc23)[C@@H](C)C1 (stereo in doubt; (R)-18)
target desc: MIA PaCa-2
pIC50: 8.30
//
compound: C=CC(=O)N1CCN(c2nc(=O)n(-c3c(C(C)C)ccnc3C)c3nc(-c4c(O)cccc4F)c(Cl)cc23)[C@@H](C)C1
target desc: MIA PaCa-2
pIC50: 8.52
//
compound: C=CC(=O)N1CCN(c2nc(=O)n(-c3c(C)cccc3C(C)C)c3nc(-c4c(O)cccc4F)c(Cl)cc23)[C@@H](C)C1
target desc: MIA PaCa-2
pIC50: 8.70

Respectfully, I request pIC50 for each entry included below.
1. C=CC(=O)N1CCN(c2nc(=O)n(-c3ccccc3C(C)C)c3cc(-c4cc(O)cc5ccccc45)c(Cl)cc23)CC1
2. C=CC(=O)N1CCN(c2nc(=O)n(-c3ccccc3C(C)C)c3cc(-c4c(O)cccc4F)c(Cl)cc23)[C@@H](C)C1
3. C=CC(=O)N1CCN(c2nc(=O)n(-c3ccccc3C(C)C)c3nc(-c4ccccc4F)c(Cl)cc23)[C@@H](C)C1
4. C=CC(=O)N1CCN(c2nc(=O)n(-c3c(C(C)C)ccnc3C)c3nc(-c4c(O)cccc4F)c(F)cc23)[C@@H](C)C1
5. C=CC(=O)N1CCN(c2nc(=O)n(-c3ccccc3C(C)C)c3cc(-c4c(O)cccc4F)c(Cl)cc23)CC1

7.77
7.85
8.30
7.80
7.48

Please state pIC50 for every compound in the list that follows.
1. C=CC(=O)N1CCN(c2nc(=O)n(-c3ccccc3C(C)C)c3cc(-c4ccccc4Cl)c(Cl)cc23)[C@@H](C)C1
2. C=CC(=O)N1CCN(c2nc(=O)n(-c3ccccc3C(C)C)c3nc(-c4ccccc4Cl)c(Cl)cc23)[C@@H](C)C1

[7.74, 7.80]
